# System: REH cells
# procedure-details: alamarBlue cytotoxicity assay, 48h
# Format: cell-based, human
# experimental-setup: Homo sapiens, read-out: IC50 in RPMI+10% FBS; REH; Table S2
pIC50: −log10 of the molar value.

compound	pIC50
C[C@H]1[C@H](OC(=O)CCC(=O)O)O[C@@H]2O[C@@]3(C)CC[C@H]4[C@H](C)CC[C@@H]1[C@@]24OO3 [AS, artesunate]	4.99

====

# procedure-details: in vivo
# experimental-setup: male, NSG, mouse, plasma, po, 200 mg/kg
measured-quantity: CL/F (mL/min/kg)

molecule	readout-unit	data-value
C[C@H]1[C@@H](O)O[C@@H]2O[C@@]3(C)CC[C@H]4[C@H](C)CC[C@@H]1[C@@]24OO3 [DHA, dihydroartemisinin]	mL/min/kg	2050

====

# System: ML-2 cells
# procedure-details: alamarBlue cytotoxicity assay, 48h
# Format: cell-based, human
# experimental-setup: Homo sapiens, ML-2 (AML), RPMI + 10% FBS

compound	system-name	IC50 (nM)
C[C@H]1[C@H](OC(=O)CCC(=O)O)O[C@@H]2O[C@@]3(C)CC[C@H]4[C@H](C)CC[C@@H]1[C@@]24OO3 [AS, artesunate]	ML-2 cells	1460

====

# Tested on: REH cells
# procedure-details: alamarBlue cytotoxicity assay, 48h
# Assay type: cell-based, human
# experimental-setup: Homo sapiens; REH; original medium RPMI + 20% FBS; read-out: IC50 in original medium
# Procedure: Following subtraction of background fluorescence from all wells, fluorescence of drug-treated cells was normalized to that of vehicle (<0.5% DMSO)-treated cells to determine the effect of each drug concentration on viability. Each cell line was tested in triplicate and in at least three independent experiments. […] In most experiments, cytotoxicity was assessed using alamarBlue assays (Life Technologies, Grand Island, NY). […]
pIC50: −log10 of the molar value.

molecule	pIC50
C[C@H]1[C@H](OC(=O)CCC(=O)O)O[C@@H]2O[C@@]3(C)CC[C@H]4[C@H](C)CC[C@@H]1[C@@]24OO3 [AS, artesunate]	4.81

====

# procedure-details: in vivo
# experimental-setup: NSG, mouse, in vivo, po

molecule	MTD
C[C@H]1[C@H](OC(=O)CCC(=O)O)O[C@@H]2O[C@@]3(C)CC[C@H]4[C@H](C)CC[C@@H]1[C@@]24OO3 [AS, artesunate]	500 to 600 mg/kg

====

# Tmax annotations
# procedure-details: in vivo
# experimental-setup: male, NSG, mouse, plasma, po, 200 mg/kg

molecule	Tmax, min
C[C@H]1[C@@H](O)O[C@@H]2O[C@@]3(C)CC[C@H]4[C@H](C)CC[C@@H]1[C@@]24OO3 [DHA, dihydroartemisinin]	15
C[C@H]1[C@H](OC(=O)CCC(=O)O)O[C@@H]2O[C@@]3(C)CC[C@H]4[C@H](C)CC[C@@H]1[C@@]24OO3 [AS, artesunate]	15

====

# Test system: KG-1a cells
# procedure-details: alamarBlue cytotoxicity assay, 48h
# Type: cell-based, human
# experimental-setup: Homo sapiens, KG-1a (AML), RPMI + 10% FBS
pIC50: −log10 of the molar value.

molecule	pIC50
C[C@H]1[C@H](OC(=O)CCC(=O)O)O[C@@H]2O[C@@]3(C)CC[C@H]4[C@H](C)CC[C@@H]1[C@@]24OO3 [AS, artesunate]	5.20

====

# procedure-details: in vivo
# experimental-setup: male, NSG, mouse, plasma, po, 200 mg/kg
measured-quantity: AUC(0-inf) (ng·h/mL)

molecule	data-value
C[C@H]1[C@@H](O)O[C@@H]2O[C@@]3(C)CC[C@H]4[C@H](C)CC[C@@H]1[C@@]24OO3 [DHA, dihydroartemisinin]	1300

====

# procedure-details: in vivo
# experimental-setup: male, NSG, mouse, plasma, po, 200 mg/kg
measured-quantity: AUC(0-t) (ng·h/mL)

molecule	measured-quantity	data-value
C[C@H]1[C@@H](O)O[C@@H]2O[C@@]3(C)CC[C@H]4[C@H](C)CC[C@@H]1[C@@]24OO3 [DHA, dihydroartemisinin]	AUC(0-t)	1290
C[C@H]1[C@H](OC(=O)CCC(=O)O)O[C@@H]2O[C@@]3(C)CC[C@H]4[C@H](C)CC[C@@H]1[C@@]24OO3 [AS, artesunate]	AUC(0-t)	34.8

====

# Tested on: RCH-ACV cells
# procedure-details: alamarBlue cytotoxicity assay, 48h
# Assay type: cell-based, human
# experimental-setup: Homo sapiens, RCH-ACV (B-ALL), RPMI + 10% FBS

compound	system-name	IC50 (µM)
C[C@H]1[C@H](OC(=O)CCC(=O)O)O[C@@H]2O[C@@]3(C)CC[C@H]4[C@H](C)CC[C@@H]1[C@@]24OO3 [AS, artesunate]	RCH-ACV cells	3.2

====

# Test system: MOLM14 cells
# procedure-details: viable cell counts via Trypan Blue dye exclusion, 48h
# Assay type: cell-based, human
# experimental-setup: MOLM14; preliminary experiments; read-out: approximate 48h IC50
pIC50: −log10 of the molar value.
measured-quantity: pIC50

smiles	data-value
CC(=O)N[C@@H](CS)C(=O)O	~4.60

====

# System: Kasumi-2 cells
# procedure-details: alamarBlue cytotoxicity assay, 48h
# Type: cell-based, human
# experimental-setup: Homo sapiens, Kasumi-2 (B-ALL), RPMI + 10% FBS

compound	IC50
C[C@H]1[C@H](OC(=O)CCC(=O)O)O[C@@H]2O[C@@]3(C)CC[C@H]4[C@H](C)CC[C@@H]1[C@@]24OO3 [AS, artesunate]	6.65 µM

====

# Test system: THP-1 cells
# procedure-details: alamarBlue cytotoxicity assay, 48h
# Assay type: cell-based, human
# experimental-setup: Homo sapiens; THP-1; original medium RPMI + 10% FBS + 50 μM β-mercaptoethanol; read-out: IC50 in original medium
measured-quantity: IC50

molecule	data-value
C[C@H]1[C@H](OC(=O)CCC(=O)O)O[C@@H]2O[C@@]3(C)CC[C@H]4[C@H](C)CC[C@@H]1[C@@]24OO3 [AS, artesunate]	11.1 µM

====

# procedure-details: in vivo
# experimental-setup: male, NSG, mouse, plasma, po, 200 mg/kg
measured-quantity: half-life (min)

molecule	measured-quantity	readout-unit	data-value
C[C@H]1[C@@H](O)O[C@@H]2O[C@@]3(C)CC[C@H]4[C@H](C)CC[C@@H]1[C@@]24OO3 [DHA, dihydroartemisinin]	half-life	min	34.8

====

# Tested on: KOPN8 cells
# procedure-details: alamarBlue cytotoxicity assay, 48h
# Assay type: cell-based, human
# experimental-setup: Homo sapiens, KOPN-8, KOPN8 (B-ALL), RPMI + 10% FBS
measured-quantity: log10(IC50) (log10 of the value in nM)

compound	measured-quantity	data-value
C[C@H]1[C@H](OC(=O)CCC(=O)O)O[C@@H]2O[C@@]3(C)CC[C@H]4[C@H](C)CC[C@@H]1[C@@]24OO3 [AS, artesunate]	log10(IC50)	2.66
COc1cc([C@@H]2c3cc4c(cc3[C@@H](O[C@@H]3O[C@@H]5CO[C@@H](C)O[C@H]5[C@H](O)[C@H]3O)[C@H]3COC(=O)[C@H]23)OCO4)cc(OC)c1O [ETO, etoposide]	log10(IC50)	2.18
C[C@H]1[C@@H](O)O[C@@H]2O[C@@]3(C)CC[C@H]4[C@H](C)CC[C@@H]1[C@@]24OO3 [DHA, dihydroartemisinin]	log10(IC50)	2.55
COc1cccc2c1C(=O)c1c(O)c3c(c(O)c1C2=O)C[C@@](O)(C(=O)CO)C[C@@H]3O[C@H]1C[C@H](N)[C@H](O)[C@H](C)O1	log10(IC50)	1.48
C[C@]12O[C@H](C[C@]1(O)CO)n1c3ccccc3c3c4c(c5c6ccccc6n2c5c31)CNC4=O	log10(IC50)	1.65
CNC(=O)c1cc(Oc2ccc(NC(=O)Nc3ccc(Cl)c(C(F)(F)F)c3)cc2)ccn1	log10(IC50)	3.62
CO[C@@H]1[C@H](N(C)C(=O)c2ccccc2)C[C@H]2O[C@]1(C)n1c3ccccc3c3c4c(c5c6ccccc6n2c5c31)C(=O)NC4	log10(IC50)	2.32

====

# System: MOLT-3 cells
# procedure-details: alamarBlue cytotoxicity assay, 48h
# Assay type: cell-based, human
# experimental-setup: Homo sapiens, MOLT-3 (T-ALL), RPMI + 10% FBS
pIC50: −log10 of the molar value.

compound	pIC50
C[C@H]1[C@H](OC(=O)CCC(=O)O)O[C@@H]2O[C@@]3(C)CC[C@H]4[C@H](C)CC[C@@H]1[C@@]24OO3 [AS, artesunate]	5.39

====

# System: Jurkat cells
# procedure-details: alamarBlue cytotoxicity assay, 48h
# Type: cell-based, human
# experimental-setup: Homo sapiens, Jurkat (T-ALL), RPMI + 10% FBS
pIC50: −log10 of the molar value.
measured-quantity: pIC50

molecule	measured-quantity	data-value
C[C@H]1[C@H](OC(=O)CCC(=O)O)O[C@@H]2O[C@@]3(C)CC[C@H]4[C@H](C)CC[C@@H]1[C@@]24OO3 [AS, artesunate]	pIC50	5.36
